pIC50 reference
# study_target: Jnk1 (Homo sapiens)
# Sequence (P45983 whole entry): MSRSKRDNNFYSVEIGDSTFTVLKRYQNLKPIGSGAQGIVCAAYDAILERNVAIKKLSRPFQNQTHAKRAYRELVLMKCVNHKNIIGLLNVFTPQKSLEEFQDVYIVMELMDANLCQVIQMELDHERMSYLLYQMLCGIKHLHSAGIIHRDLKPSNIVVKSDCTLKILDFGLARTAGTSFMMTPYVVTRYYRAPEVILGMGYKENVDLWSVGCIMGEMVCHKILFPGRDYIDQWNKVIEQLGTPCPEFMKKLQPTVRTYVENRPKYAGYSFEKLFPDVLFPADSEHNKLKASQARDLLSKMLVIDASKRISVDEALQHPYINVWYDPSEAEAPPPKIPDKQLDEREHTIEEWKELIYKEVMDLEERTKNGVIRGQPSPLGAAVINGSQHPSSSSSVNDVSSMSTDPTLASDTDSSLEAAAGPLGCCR
pIC50: −log10 of the molar value.

mol	pIC50
Cc1c[nH]c(-c2cnc3[nH]cc(C(=O)c4c(F)ccc(NS(=O)(=O)c5ccc(C(C)C)cc5)c4F)c3c2)n1	≥ 5.00
Cc1cnc(-c2cnc3[nH]cc(C(=O)c4c(F)ccc(NS(=O)(=O)c5ccc(C(F)(F)F)cc5)c4F)c3c2)[nH]1	≥ 5.00

* * *

IC50 data for Btk (Homo sapiens, UniProt Q06187) follow.
value_kind: IC50

compound	endpoint_result
CCCc1ccc(S(=O)(=O)Nc2ccc(F)c(C(=O)c3c[nH]c4ncc(-c5ncc(C)[nH]5)cc34)c2F)cc1 [Compound P-0023]	≤ 10 µM
O=C(c1c(F)ccc(NS(=O)(=O)c2ccc3nsnc3c2)c1F)c1c[nH]c2ncc(Cl)cc12 [Compound P-0013]	≤ 10 µM

* * *

Measured IC50 accompanies every entry in the list below.
# study_target: UniProt:P07333
# Sequence (P07333 20-972): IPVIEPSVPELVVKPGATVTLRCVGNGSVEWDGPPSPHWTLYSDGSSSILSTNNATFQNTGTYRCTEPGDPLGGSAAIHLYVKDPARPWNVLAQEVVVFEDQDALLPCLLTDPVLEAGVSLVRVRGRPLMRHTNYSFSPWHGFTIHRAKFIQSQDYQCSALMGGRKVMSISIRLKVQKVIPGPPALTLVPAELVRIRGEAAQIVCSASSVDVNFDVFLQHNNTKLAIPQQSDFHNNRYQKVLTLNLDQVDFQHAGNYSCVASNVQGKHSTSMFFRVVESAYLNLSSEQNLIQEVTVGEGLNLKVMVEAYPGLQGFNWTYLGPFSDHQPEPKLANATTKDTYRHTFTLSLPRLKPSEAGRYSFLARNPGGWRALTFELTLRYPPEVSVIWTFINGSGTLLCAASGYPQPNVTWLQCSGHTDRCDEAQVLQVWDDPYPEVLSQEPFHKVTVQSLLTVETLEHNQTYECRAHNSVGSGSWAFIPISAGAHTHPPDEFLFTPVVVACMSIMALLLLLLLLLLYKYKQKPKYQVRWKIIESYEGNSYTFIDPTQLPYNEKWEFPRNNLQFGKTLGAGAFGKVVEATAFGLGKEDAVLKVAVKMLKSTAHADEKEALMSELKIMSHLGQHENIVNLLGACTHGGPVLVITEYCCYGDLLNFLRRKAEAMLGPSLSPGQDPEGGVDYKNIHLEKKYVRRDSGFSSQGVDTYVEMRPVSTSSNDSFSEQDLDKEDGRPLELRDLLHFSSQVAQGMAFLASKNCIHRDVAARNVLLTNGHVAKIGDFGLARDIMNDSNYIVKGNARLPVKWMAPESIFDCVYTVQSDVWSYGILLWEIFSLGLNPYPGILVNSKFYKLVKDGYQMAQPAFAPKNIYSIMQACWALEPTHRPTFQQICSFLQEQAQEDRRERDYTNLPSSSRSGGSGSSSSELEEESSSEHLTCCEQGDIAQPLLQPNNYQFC
value_kind: IC50

mol	endpoint_result
O=C(c1c(F)ccc(NS(=O)(=O)c2cccc(OC(F)F)c2)c1F)c1c[nH]c2ncc(Cl)cc12	≤ 10 µM
Cc1cc(S(=O)(=O)Nc2ccc(F)c(C(=O)c3c[nH]c4ncc(Cl)cc34)c2F)c(C(F)(F)F)o1	≤ 10 µM
CCCc1ccc(S(=O)(=O)Nc2ccc(F)c(C(=O)c3c[nH]c4ncc(-c5ncc(C)[nH]5)cc34)c2F)cc1	≤ 10 µM

Origin of values: patent US7863289B2
